Biological target: Cytochrome P450 2D6 (Homo sapiens) (UniProt P10635)
Sequence (P10635 whole entry, looked up): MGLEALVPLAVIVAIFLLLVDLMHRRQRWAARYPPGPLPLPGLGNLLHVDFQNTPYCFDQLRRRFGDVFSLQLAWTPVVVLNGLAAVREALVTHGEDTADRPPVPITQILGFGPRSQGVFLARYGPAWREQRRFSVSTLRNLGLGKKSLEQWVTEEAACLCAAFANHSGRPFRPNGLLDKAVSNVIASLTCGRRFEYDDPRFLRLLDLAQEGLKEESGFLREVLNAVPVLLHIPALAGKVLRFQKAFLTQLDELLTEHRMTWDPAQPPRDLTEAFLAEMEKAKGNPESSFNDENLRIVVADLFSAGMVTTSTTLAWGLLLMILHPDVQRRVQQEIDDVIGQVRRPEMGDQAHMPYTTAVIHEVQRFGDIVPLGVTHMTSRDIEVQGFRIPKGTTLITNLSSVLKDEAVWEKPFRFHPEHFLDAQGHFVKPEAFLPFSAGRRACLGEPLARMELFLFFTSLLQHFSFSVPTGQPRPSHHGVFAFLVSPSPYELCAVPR
Assay: Cytochrome panel assay with activity outcomes
Conditions: recombinant CYP, pro-luciferin dealkylation, luminescence, p450-cyp2d6; series mostly up to 57.1 µM
The campaign covered roughly 16,000 compounds. About 2,600 (16%) were called active. Inconclusive results (about 20%) are left out. Calls follow the shape of the dose curve; as a rule, active = well fitted curve in the direction sought with a large enough effect; inconclusive = small, poorly fitted or top-dose-only effect, or effect the other way; inactive = no such curve, though single readings can be large or run the other way. The list is a sample of the results.
// allowed return values: yes (active), no (inactive)

Example cases with answers are listed next.
# ITEM SMILES, TARGET SYSTEM, GROUP
data = [
    ("CCNC(=O)NC1(C(=O)Nc2ccc3c(c2)OCCO3)CCCCC1", "Cytochrome P450 2D6 (Homo sapiens) (UniProt P10635)", "no"),
    ("O=C(Nc1cc2c(oc1=O)CCCC2=O)c1ccc(Cl)cc1", "Cytochrome P450 2D6 (Homo sapiens) (UniProt P10635)", "no"),
    ("Cc1sc(N/N=C/C=C/c2ccccc2)nc1-c1ccccc1", "Cytochrome P450 2D6 (Homo sapiens) (UniProt P10635)", "no"),
    ("CN(C)Cc1ccccc1-c1ccc2ncnc(NCc3ccccc3)c2c1", "Cytochrome P450 2D6 (Homo sapiens) (UniProt P10635)", "yes"),
    ("CN(C)c1ncc2nc(-c3ccccc3)c(=O)n(CCc3ccccc3)c2n1", "Cytochrome P450 2D6 (Homo sapiens) (UniProt P10635)", "no"),
    ("COC(=O)[C@@]1(Cc2ccc(OC)cc2)[C@@H]2C(=CC(=O)[C@H]2CC(=O)C(=O)N2CCCC2)CN1C(=O)c1ccccc1", "Cytochrome P450 2D6 (Homo sapiens) (UniProt P10635)", "no"),
    ("Cc1ccc(S(=O)(=O)N[C@H](C(=O)Oc2ccc3c(C(F)(F)F)cc(=O)oc3c2)c2ccccc2)cc1", "Cytochrome P450 2D6 (Homo sapiens) (UniProt P10635)", "no"),
    ("COc1ccccc1CNc1ncnc2ccc(-c3ccccc3CN(C)C)cc12", "Cytochrome P450 2D6 (Homo sapiens) (UniProt P10635)", "yes"),
    ("CCN(c1ccccc1)S(=O)(=O)c1ccc(NC(=S)NC(=O)c2cccs2)cc1", "Cytochrome P450 2D6 (Homo sapiens) (UniProt P10635)", "no"),
    ("O=C(Cn1cnc2ccccc2c1=O)Nc1nnc(SCc2ccccc2)s1", "Cytochrome P450 2D6 (Homo sapiens) (UniProt P10635)", "no"),
]

Data request: // return assay outcome for O=C(ON=C1CCN(S(=O)(=O)c2ccccc2)CC1)c1ccccc1
Data returned: no

Data request: // return assay outcome for Cc1c(-c2ccccc2)oc2c(C(=O)OCCN3CCCCC3)cccc2c1=O
Data returned: yes

Data request: // return assay outcome for C[C@H]1NC(=O)NC1=O
Data returned: no

Data request: // return assay outcome for Cc1ccccc1C(=O)Oc1ccc(Br)cc1C(=S)N1CCCC1
Data returned: no

====

Target: Cytochrome P450 2D6 (Homo sapiens) (UniProt P10635)
Experiment: Cytochrome panel assay with activity outcomes
Conditions: recombinant CYP, pro-luciferin dealkylation, luminescence, p450-cyp2d6; series mostly up to 57.1 µM
Screen size: about 16,000 compounds; about 2,600 (16%) were called active. Roughly 20% stayed inconclusive and do not appear here. The call rests on the fitted dose curve; in most records, active means well fitted curve in the direction sought with a large enough effect; inconclusive means small, poorly fitted or top-dose-only effect, or effect the other way; inactive means no such curve, though single readings can be large or run the other way. These entries were drawn from the full list.
// allowed return values: 1 = active, -1 = inactive

Example cases with answers are listed next.
# MOLECULE, GROUP
data = [
    ("O=C(O)c1cc(=O)c2c(Cl)cc(Cl)cc2[nH]1", -1),
    ("CN(CCOc1ccc(C[C@H](Nc2ccccc2C(=O)c2ccccc2)C(=O)O)cc1)c1ccccn1", 1),
    ("O=C(Nc1cccn2ncnc12)c1ccc(Cl)cc1Cl", -1),
]

Data request: // return assay outcome for COC(=O)CN(c1ccccn1)S(=O)(=O)c1ccccc1
Data returned: -1

Data request: // return assay outcome for CCC(C)(C)n1nnnc1C(C(C)C)N(Cc1ccco1)Cc1cc2cc3c(cc2[nH]c1=O)OCO3 (configuration not stated)
Data returned: 1

Data request: // return assay outcome for Cn1cccc1C(=O)N1CCC2(CC1)CCN(c1ccccn1)CC2
Data returned: -1

Data request: // return assay outcome for CO[C@]1(NC(=O)[C@H](C(=O)O)c2ccc(O)cc2)C(=O)N2C(C(=O)O)=C(CSc3nnnn3C)CO[C@H]21
Data returned: -1

Data request: // return assay outcome for Cc1ccc(Nc2c([N+](=O)[O-])ccc3c2=NC2(CCCCC2)N=3)cc1
Data returned: 1
